- measurement-notes: in vitro
- experimental-parameters: human, hela cells, % viability
measured-attribute: viability at 28.5 h, 10 µM (%)
One number for each entry, in %.

compound="c1ccc(-c2nc(N3CCOCC3)n3ccccc23)cc1 [CBK014407]" reported_measurement=89.2
compound="NC(=O)C1CCN(C(=O)CSc2nc3ccccc3s2)CC1 [CBK293953]" reported_measurement=95.2
compound="CC(C)NC(=O)Nc1ccc(C(=O)N(CC#N)C2CC2)cc1 [CBK306120]" reported_measurement=90.5
compound="COc1nc(NCCN2CCOCC2)nc(Nc2ccc(Cl)cc2)n1 [CBK262541]" reported_measurement=102
compound="C=C(C)Cn1c(SCC(C)C)nnc1-c1ccccc1Cl [CBK200078]" reported_measurement=92.4

Respectfully, I request viability at 28.5 h, 10 µM for each entry included below.
1. O=C(c1ccc2[nH]nnc2c1)N1CCc2ccccc2C1 [CBK200332]
2. CCCC/C=C/c1cnc(N)c(Nc2ccc(OC)cc2)n1 [CBK063890]
3. CC(C)(C)C1CCc2c(sc(NC(=S)NC(=O)c3cc4ccccc4o3)c2C(N)=O)C1 (centres unmarked) [CBK268635]
4. Cc1ccc2cc(CN(CCNC(=O)OC(C)(C)C)C(=O)NCc3ccccc3)c(=O)[nH]c2c1C [CBK132097]
5. Cc1ccc(OCC(=O)NC(C)c2ccc(F)cc2F)c([N+](=O)[O-])n1 (centres unmarked) [CBK295662]
6. O=[N+]([O-])c1ccccc1S(=O)(=O)N1CCN(Cc2cccc(Oc3ccccc3)c2)CC1 [CBK264283]
7. CCn1c(C)nc2cc(NC(=O)c3cnn(C)c3)ccc21 [CBK281837]
8. N#CCCn1cc(C(=O)N2CCCCC2)c(-c2cccs2)n1 [CBK306194]

Ans:
1. 103
2. 93.9
3. 95
4. 90.2
5. 92.7
6. 98.9
7. 86.1
8. 86.5

Respectfully, I request viability at 28.5 h, 10 µM for each entry included below.
1. Cc1ccc(C2C(C(=O)c3sc(-c4ccccc4)nc3C)=C(O)C(=O)N2CCN(C)C)o1 (centres unmarked) [CBK234004]
2. CN(C(=O)C1(NC(N)=O)CC1)c1nc2c(s1)CC(c1ccccc1)CC2 (centres unmarked) [CBK306022]

Ans:
1: 107; 2: 93

Respectfully, I request viability at 28.5 h, 10 µM for each entry included below.
1. Cc1nc(C(=O)N(CCO)Cc2ccccc2)cs1 [CBK304810]
2. CCCC/C=C/c1cn2ccnc2c(N2CCOCC2)n1 [CBK038031]
3. COc1cccc(COc2nccnc2-c2ccc(C)cc2C)c1OC [CBK106995]
4. O=C(NCc1ccncc1)C1CCCN(c2nc3c(-c4ccccc4)csc3c(=O)[nH]2)C1 (centres unmarked) [CBK215493]
5. NCc1ccc(-c2nc3ccccc3[nH]2)nc1 [CBK024396C]
6. O=c1ccnc(SCc2cccc(Cl)c2)[nH]1 [CBK288123]

Ans:
[105, 100, 93.2, 107, 87.7, 100]

Respectfully, I request viability at 28.5 h, 10 µM for each entry included below.
1. CC(=O)Nc1ccc(C2=NC3SC(c4ccc(NC(C)=O)cc4)=NC3S2)cc1 (centres unmarked) [CBK019799]
2. Cc1ccc([C@@]2(O)CC[C@@H]3CN(S(=O)(=O)C(C)C)C[C@@H]32)cc1 [CBK285297]
3. COc1ccc(CN(C)CCN(C)C)c(O)c1 [CBK261915]
4. COc1cccc2cc(C(=O)C3=C(O)C(=O)N(CCN4CCOCC4)C3c3cccc(Cl)c3)oc12 (centres unmarked) [CBK266599]
5. COc1ccc(SCCCCN2CCC3(CC2)OCCc2c3[nH]c3ccccc23)cc1 [CBK113464T]
6. CN1CCN(CCCCn2nc3n(c2=O)-c2ccccc2OC3(C)C)CC1 [CBK023953C]
7. CS(=O)(=O)N(Cc1ccccc1)c1ccc(C(=O)Nc2ccc3c(c2)OCO3)cc1 [CBK033562]
8. Cc1cccc(OCC(C)NC(=O)N2CCCC2c2cnn(C)c2)c1 (centres unmarked) [CBK304100]

Ans:
1. 103
2. 97.8
3. 114
4. 100
5. 0.266
6. 95.8
7. 85.4
8. 91.6
